Target: Cysteinyl leukotriene receptor 1 (Cavia porcellus)
Assay: In vitro for antagonistic activity against LTD4 receptor in guinea pig ileum
# note: exactly 10 nM is not below, so it is label 0; use label 1 for IC50 strictly under it

{"columns": ["Substance Smiles", "Label Class"],
 "data": [
  ["CCC(CC)(CC(=O)Nc1cccc(OCc2ccc3ccc(Cl)cc3n2)c1)C(=O)O", "label 1"],
  ["CCCC(CCC)(CC(=O)Nc1cccc(OCc2ccc3ccc(F)cc3n2)c1)C(=O)O", "label 1"],
  ["CCC(CC)(CC(=O)Nc1cccc(SCc2ccc3ccc(F)cc3n2)c1)C(=O)O", "label 1"],
  ["CCC(CC)(CC(=O)Nc1cccc(OCc2ccc3cc(C)c(C)cc3n2)c1)C(=O)O", "label 0"],
  ["CCC(CC)(CC(=O)Nc1cccc(OCc2ccc3cc(C)ccc3n2)c1)C(=O)O", "label 0"],
  ["O=C(O)CCC(=O)Nc1cccc(OCc2ccc3ccc(F)cc3n2)c1", "label 0"],
  ["CCC(CC)(CC(=O)Nc1cccc(OCc2ccc3ccc(C)cc3n2)c1)C(=O)O", "label 0"]
]}

Origin of the recorded values: ChEMBL document CHEMBL1130795
